All figures here come from PubChem BioAssay (NCI).

System: OVCAR-4 ovarian
Assay: NCI tumour cell line growth inhibition, 48 h
Property Name: TGI

>>> assay_result("CC(=O)Nc1ccc(OCC(O)CO)cc1 (stereo not given)")
"> 100 µM"
>>> assay_result("CC1CC(c2ccc([N+](=O)[O-])cc2)=Nc2ccccc2S1=O (stereo not given)")
"62.3 µM"
>>> assay_result("Cc1nc2c(s/c(=N\\N)n2-c2ccccc2)c(=O)n1C")
"> 100 µM"
>>> assay_result("O=C1NC(=O)C2(CCc3ccc(N(CCCl)CCCl)cc32)N1 (stereo not given)")
"41.4 µM"
>>> assay_result("Cc1cn(C2CC(O)C(Cn3nncc3Cn3ccc(=O)[nH]c3=O)O2)c(=O)[nH]c1=O (stereo not given)")
"> 100 µM"
>>> assay_result("CC(C)(C)c1cc2c(O)c(c1)COCc1cc(C(C)(C)C)cc(c1O)COCc1cc(C(C)(C)C)cc(c1O)COC2")
"> 100 µM"
>>> assay_result("Cc1ccc(NC(=O)CC2C(=O)Nc3ccccc3S2(=O)=O)cc1C (stereo not given)")
"> 100 µM"
>>> assay_result("CC(=O)Nc1ccc2c3c(cc(O)c2c1)N(C(=O)CCCCCC(=O)Nc1ccc2c4c(cc(O)c2c1)N(C(=O)OC(C)(C)C)CC4CCl)CC3CCl (stereo not given)")
"> 63.6 µM"
>>> assay_result("Cc1ccc(S(=O)(=O)N/N=C2\\CC3C4CCC3C2C4)cc1 (stereo not given)")
"> 100 µM"
>>> assay_result("CCN(CC)c1ccc2cc(-c3csc(-c4ccc(N(C)C)cc4)n3)c(=O)oc2c1")
"> 100 µM"
